- target or test system: CRBN/DDB1 (Homo sapiens (Human), UniProt Q96SW2)
- Sequence (Q96SW2 whole entry): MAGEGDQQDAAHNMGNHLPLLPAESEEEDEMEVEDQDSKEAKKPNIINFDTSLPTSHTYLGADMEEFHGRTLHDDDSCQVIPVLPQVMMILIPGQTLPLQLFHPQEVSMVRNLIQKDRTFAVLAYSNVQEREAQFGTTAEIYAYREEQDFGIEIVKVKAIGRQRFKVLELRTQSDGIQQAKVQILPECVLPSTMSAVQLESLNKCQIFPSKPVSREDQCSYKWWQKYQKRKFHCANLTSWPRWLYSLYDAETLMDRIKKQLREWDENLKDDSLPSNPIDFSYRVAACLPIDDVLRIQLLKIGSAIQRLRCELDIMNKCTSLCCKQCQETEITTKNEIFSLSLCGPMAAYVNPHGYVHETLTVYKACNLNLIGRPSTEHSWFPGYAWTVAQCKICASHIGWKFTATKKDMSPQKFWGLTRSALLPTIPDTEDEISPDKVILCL
- Sequence (Q16531 whole entry partner): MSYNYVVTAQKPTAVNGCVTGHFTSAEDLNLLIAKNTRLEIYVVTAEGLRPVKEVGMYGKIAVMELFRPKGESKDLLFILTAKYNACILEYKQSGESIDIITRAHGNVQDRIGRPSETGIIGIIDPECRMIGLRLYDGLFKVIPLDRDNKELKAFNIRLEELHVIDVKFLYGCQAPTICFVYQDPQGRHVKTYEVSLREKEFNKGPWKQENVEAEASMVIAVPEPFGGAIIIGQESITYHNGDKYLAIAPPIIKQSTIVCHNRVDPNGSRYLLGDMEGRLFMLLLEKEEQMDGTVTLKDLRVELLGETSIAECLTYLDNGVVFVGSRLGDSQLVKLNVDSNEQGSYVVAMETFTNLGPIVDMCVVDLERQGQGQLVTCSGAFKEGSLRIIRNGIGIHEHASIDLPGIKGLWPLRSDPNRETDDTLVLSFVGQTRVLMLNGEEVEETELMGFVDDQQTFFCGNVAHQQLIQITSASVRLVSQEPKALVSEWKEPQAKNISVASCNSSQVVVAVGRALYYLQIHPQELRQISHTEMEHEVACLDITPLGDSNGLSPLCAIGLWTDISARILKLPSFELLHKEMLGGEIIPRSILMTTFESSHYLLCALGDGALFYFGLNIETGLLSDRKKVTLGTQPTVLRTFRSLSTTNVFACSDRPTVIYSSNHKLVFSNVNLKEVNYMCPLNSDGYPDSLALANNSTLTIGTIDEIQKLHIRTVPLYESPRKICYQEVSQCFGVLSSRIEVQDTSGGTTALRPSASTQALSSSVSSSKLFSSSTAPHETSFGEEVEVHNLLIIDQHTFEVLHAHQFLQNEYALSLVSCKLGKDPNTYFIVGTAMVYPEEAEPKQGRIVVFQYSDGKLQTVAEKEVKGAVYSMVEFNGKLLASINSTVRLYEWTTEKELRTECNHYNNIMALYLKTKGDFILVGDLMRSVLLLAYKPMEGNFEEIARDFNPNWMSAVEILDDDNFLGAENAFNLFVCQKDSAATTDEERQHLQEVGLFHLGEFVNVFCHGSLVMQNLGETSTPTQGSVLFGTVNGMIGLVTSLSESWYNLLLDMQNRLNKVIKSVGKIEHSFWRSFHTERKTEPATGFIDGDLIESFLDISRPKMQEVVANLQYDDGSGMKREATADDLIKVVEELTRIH
- measurement description: HTRF binding assay to CRBN/DDB1
- test context: read-out: CRBN HTRF IC50
result type: IC50

compound	IC50
COc1cc(N2CCC(CN3CCN(c4ccc(C(=O)NC5CCC(=O)NC5=O)nc4)CC3)CC2)ccc1[C@H]1c2ccc(O)cc2OC[C@H]1c1ccccc1 (single isomer, unassigned)	> 5 µM
O=C1CCN(c2ccc(N3CCN(CC4CC5(CCN(c6ccc([C@@H]7c8ccc(O)cc8OC[C@@H]7c7ccccc7)cc6)CC5)C4)CC3)cc2)C(=O)N1 (single isomer, unassigned)	> 5 µM

Request: # get_value(readout='IC50', item= COc1cccc([C@@H]2COc3cc(O)ccc3[C@@H]2c2ccc(N3CCC(CN4CCN5c6ccc7c(c6OC[C@@H]5C4)CN(C4CCC(=O)NC4=O)C7=O)CC3)cc2)c1 (single isomer, unassigned) )
Result: < 0.05 µM

Data origin: patent US20260000676A1
